Known Viability d12 (relative viability) of a selection of compounds
# Tested on: E. multilocularis metacestode vesicles
# Experimental Details: Metacestode vesicle viability assay (ATP, CellTiter-Glo)
# Type: cell-based, Echinococcus multilocularis
# Condition Details: overview screen, 10 μM, singlets, 12 days, relative to DMSO control
Express the result in % but write the number alone.

The cases that follow already have their Viability d12 (relative viability) on record.
q: Given the entry COc1cc(C(C)(C)CCCC(C)C)cc(OC)c1OC [MMV1782102] , report its measured Viability d12 (relative viability).
a: 58.4954

q: Next record, please: O=C(NCc1ccccc1Cl)c1cnc2ccccc2n1 [MMV1230557]
a: 58.5314

Further cases:
q: Param item = CC[C@@]1(O)C(=O)OCc2c1cc1n(c2=O)Cc2cc3c(CN(C)C)c(O)ccc3nc2-1.Cl [MMV1633678] ; retrieve measured Viability d12 (relative viability).
a: 288.666

q: Then C[C@H](c1cccc2ccccc12)N(C)Cc1ccccc1 [MMV1782221] ?
a: 45.2554

q: # repeat for COc1cc(NS(=O)(=O)c2ccc(C)cc2)c2ncccc2c1 [MMV098836]
a: 72.5053

q: What do you have for COc1ccc(C2CNC(=O)C2)cc1OC1CCCC1 (centres unmarked) [MMV003738] ?
a: 180.575

q: Same question, O=C(Nc1ccccc1)N(Cc1cc(Br)ccc1O)c1ccc(F)cc1 [MMV1581552] this time
a: 81.6601

q: Note, next up: O=c1nc(N2CCN(CC3CCCCC3)CC2)sc2c([N+](=O)[O-])cc(C(F)(F)F)cc12 [MMV1578885]
a: 20.6104

q: Now this one: CCCCc1ccc(-c2nc(C)c(C(=O)OC)s2)cc1 [MMV1634392]
a: 152.475

q: Same for Cc1cc(C)n(O)c(=O)c1 [MMV1782389]
a: 156.473

q: Would you mind doing CCCCN1C[C@H](O)[C@@H](O)[C@H](O)[C@H]1CO [MMV1782098] as well?
a: 82.1234
